target: Recombinant human his-tagged IGF R extracellular domain protein (human) (UniProt P08069); test: SPR, Ab captured via anti-huIgG Fc, dissociation at pH 6
property: kon (M⁻¹ s⁻¹)
// units = M⁻¹ s⁻¹; emit number, no label

Which kon reading was recorded for the binder VRDN-02033 (antibody, V domains shown) VH: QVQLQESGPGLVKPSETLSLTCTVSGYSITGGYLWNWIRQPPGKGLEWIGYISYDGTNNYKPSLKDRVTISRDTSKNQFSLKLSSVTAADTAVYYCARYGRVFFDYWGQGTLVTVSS VL: DIVMTQSPLSLPVTPGEPASISCRSSQHIVHSNGNTYLQWYLQKPGQSPQLLIYKVSNRLYGVPDRFSGSGSGTDFTLKISRVEAEDVGVYYCFQGSHVPWTFGQGTKVEIK ?
92700

Which kon reading was recorded for the binder VRDN-02066 (antibody, V domains shown) VH: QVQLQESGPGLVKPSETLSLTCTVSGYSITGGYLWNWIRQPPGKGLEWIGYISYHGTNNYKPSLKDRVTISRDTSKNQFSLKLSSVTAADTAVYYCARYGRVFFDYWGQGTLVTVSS VL: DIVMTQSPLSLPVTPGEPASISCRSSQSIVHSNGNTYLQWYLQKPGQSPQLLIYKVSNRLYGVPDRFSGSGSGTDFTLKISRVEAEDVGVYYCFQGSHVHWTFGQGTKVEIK ?
174000

Which kon reading was recorded for the binder VRDN-02057 (antibody, V domains shown) VH: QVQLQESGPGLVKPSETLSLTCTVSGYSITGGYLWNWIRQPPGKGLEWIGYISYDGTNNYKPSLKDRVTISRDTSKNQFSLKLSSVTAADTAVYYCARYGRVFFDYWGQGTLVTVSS VL: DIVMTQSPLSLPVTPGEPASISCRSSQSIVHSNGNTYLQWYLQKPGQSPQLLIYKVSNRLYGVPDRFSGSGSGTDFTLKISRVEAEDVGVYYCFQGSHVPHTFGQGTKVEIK ?
118000

Which kon reading was recorded for the binder VRDN-02059 (antibody, V domains shown) VH: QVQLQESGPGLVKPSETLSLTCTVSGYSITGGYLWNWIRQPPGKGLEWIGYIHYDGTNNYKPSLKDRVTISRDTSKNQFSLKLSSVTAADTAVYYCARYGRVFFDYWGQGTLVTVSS VL: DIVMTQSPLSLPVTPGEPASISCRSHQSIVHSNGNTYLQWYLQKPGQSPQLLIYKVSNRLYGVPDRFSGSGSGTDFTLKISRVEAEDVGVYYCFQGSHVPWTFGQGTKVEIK ?
194000

Which kon reading was recorded for the binder VRDN-02073 (antibody, V domains shown) VH: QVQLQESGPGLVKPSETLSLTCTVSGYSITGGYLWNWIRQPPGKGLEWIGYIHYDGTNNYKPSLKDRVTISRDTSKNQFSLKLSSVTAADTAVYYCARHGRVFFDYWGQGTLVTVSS VL: DIVMTQSPLSLPVTPGEPASISCRSHQSIVHSNGNTYLQWYLQKPGQSPQLLIYKVSNRLYGVPDRFSGSGSGTDFTLKISRVEAEDVGVYYCFQGSHVPHTFGQGTKVEIK ?
179000
